Every entry's value here was drawn from the supplement of paper PMC10567573.

B1: PBXIP1 (parent)
chain: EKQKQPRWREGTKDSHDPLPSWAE

# Variants of: B1
# Assay name: protein stability index of a GFP-peptide fusion (GPS, HEK-293T) (PSI 1-6); higher = more stable;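 note: lentivirally expressed fusions sorted by FACS into six bins by GFP to DsRed ratio, PSI derived from sequencing read proportions per bin multiplied by bin number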
# Condition context: c terminus: a fixed tail appended
Entries and their measured protein stability index follow.
// keep it numeric: no unit symbol after the value

# annotated cases, reported protein stability index shown
>>> df
   mutation_key  observed_measurement
0           K4F                  1.99
1          T12A                     2
2          D17V                  3.08
3          P18Y                  1.95

Note: attention shifts to another entry.
Output protein stability index of Q5D
1.99
